assay: drug combination growth inhibition, ovarian cancer – cell-based, oncology-focused library, rucaparib conditional, profiling panel (AID 1508598); details: patient-derived ovarian cancer cells, CellTiter-Glo viability, 144 h; at 0.00122 µM; OCI-P5x cells; with rucaparib 20 µM; 100% = cells with rucaparib alone
Activity calls are given as the source filed them.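 The calls were made as follows: active = normalized viability below 100% at a tested concentration; inactive = the rest.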
Hello, when you answer, please use one of the following outcomes: active, inactive

C#Cc1cccc(Nc2ncnc3cc(OCCOC)c(OCCO)cc23)c1: inactive
CC(C)c1ccccc1Cc1cc(C(=O)Nc2ccc(S(=O)(=O)c3ccccc3C(C)(C)C)cc2)c(O)c(O)c1O: inactive
Cc1cnc(Nc2ccc(OCCN3CCCC3)cc2)nc1Nc1cccc(S(=O)(=O)NC(C)(C)C)c1: active

Req: Recorded test outcome, item O=C(NC1CCNCC1)c1[nH]ncc1NC(=O)c1c(Cl)cccc1Cl
Resp: active

Req: What did this assay record as the result for COc1cc2nccc(Oc3ccc(NC(=O)Nc4cc(C)on4)c(Cl)c3)c2cc1OC ?
Resp: inactive
